# Target or system: Muscarinic acetylcholine receptor (Rattus norvegicus) (UniProt P08482+P08483+P08485+P08911+P10980)
Field: label. Allowed values: met (K app < 0.005 µM) or not met (K app >= 0.005 µM).

Molecule: Cc1noc(C2=CCCN(C)C2)n1
Assigned category: not met

Molecule: Cc1noc(C2CC3CCC2N(C)C3)n1 (stereo in doubt; 23b)
Assigned category: not met

Molecule: Cc1noc(C2CN3CCC2CC3)n1 (centres undefined)
Assigned category: met

Molecule: Nc1noc(C2CN3CCC2C3)n1 (stereo in doubt; 16b)
Assigned category: met

Molecule: Cc1noc(C2CC3CCC2N(C)C3)n1 (stereo in doubt; 23a)
Assigned category: not met

Molecule: Cc1noc(C2CN(C)CCN2)n1 (centres undefined)
Assigned category: not met

Molecule: Cc1noc(C2CCCN(C)C2)n1 (centres undefined)
Assigned category: not met

Molecule: CN1CCN(C)C(c2nc(N)no2)C1 (centres undefined)
Assigned category: not met

Molecule: Cc1noc(C2CCCCN(C)C2)n1 (centres undefined)
Assigned category: not met

Molecule: Cc1noc(CN(C)C)n1
Assigned category: not met

Molecule: CN1CCNC(c2nc(N)no2)C1 (centres undefined)
Assigned category: not met

Molecule: Nc1noc(C2CCNC2)n1 (centres undefined)
Assigned category: not met

Molecule: Cc1noc(C2=CCCNC2)n1
Assigned category: met

Molecule: Cc1noc(C2CN3CCN2CC3)n1 (centres undefined)
Assigned category: not met

Molecule: CN1CCC(c2nc(N)no2)C1 (centres undefined)
Assigned category: not met

Molecule: Nc1noc(C2CN3CCCC2C3)n1 (stereo in doubt; 17b)
Assigned category: met

Molecule: Cc1noc(C2CC3CCC2NC3)n1 (stereo in doubt; 22b)
Assigned category: met

Molecule: Cc1noc(C2CCN(C)C2)n1 (centres undefined)
Assigned category: not met

Molecule: Cc1noc(C[N+](C)(C)C)n1
Assigned category: met

Molecule: CN1CCC=C(c2nc(N)no2)C1
Assigned category: met

Molecule: Nc1noc(C2CN3CCC2CC3)n1 (centres undefined)
Assigned category: met

Molecule: Cc1noc(C2CN3CCC2C3)n1 (stereo in doubt; 15a)
Assigned category: met

Molecule: Nc1noc(C2CNCCN2)n1 (centres undefined)
Assigned category: not met

Molecule: Nc1noc(C2CN3CCN2CC3)n1 (centres undefined)
Assigned category: not met

Molecule: CN1CCCC(c2nc(N)no2)C1 (centres undefined)
Assigned category: not met

Molecule: Cc1noc(C2CC3CCC2NC3)n1 (stereo in doubt; 22a)
Assigned category: met

Molecule: Nc1noc(C2=CCCNC2)n1
Assigned category: met

Molecule: Nc1noc(C2CN3CCCC2C3)n1 (stereo in doubt; 17a)
Assigned category: met

Source listed as ChEMBL document CHEMBL1124973.
